Form field: TGI (one value per entry).
test system: BT-549 breast; assay: NCI tumour cell line growth inhibition, 48 h
readout kind: TGI (µM)

1. C[N+](C)(C)CC1CCC(C[N+](C)(C)C)C1=O (stereo not given) = 30.7
2. C=C1c2ccccc2C(=O)c2c1c1c(C(=O)OC)c(OC(=O)OCc3ccc([N+](=O)[O-])cc3)ccc1n2Cc1ccccc1 = 9.48
3. O=C(NCCc1ccccc1)Nc1ccc2cc3ccc(NC(=O)NCCc4ccccc4)cc3nc2c1 = 3.37

* * *

system: COLO 205 colon; test: NCI tumour cell line growth inhibition, 48 h
Each entry below carries its reported TGI.
readout kind: TGI

1) CCOC(=O)C1C=C2O[C@@H]3OC4(CCCCC4)O[C@@H]3C2C2C(=O)CCC(=O)[C@@]12C(=O)OC (stereo partly drawn) = > 100 µM
2) NCCCCCNc1noc(Cc2c[nH]c3cc(Br)ccc23)n1 = 3.22 µM
3) CCOC(=O)Nc1sc2c(c1C#N)CC(C)CC2 (stereo not drawn) = 18.2 µM
4) CCCCCCCCCC[C@@H](O)[C@@H]1CC[C@@H]([C@@H]2CC[C@@H]([C@@H](O)CCCCCCCCCC[C@H](O)CC3=CC(C)OC3=O)O2)O1 (stereo partly drawn) = > 27.5 µM
5) O=C1CCCC/C1=C1/SC(=Nc2ccccc2)C(=Nc2ccccc2)N1c1ccccc1 = > 100 µM
6) CCOC(=O)C(Cc1c[nH]c2cc(N(CCO)CCO)ccc12)(NC(C)=O)C(=O)OCC = > 1000 µM
7) O=C(c1ccco1)N(C(=S)N1CCN(c2ccccc2)CC1)C1CCCCC1 = > 100 µM
8) N#Cc1cc2c(cc1C#N)/C(=N\c1cccc(N)n1)N=C2Nc1cccc(N)n1 = 51.9 µM
9) Cc1c(Cl)c(=O)oc2cc(OC/C=C3\CCC(=O)O3)ccc12 = 30.1 µM
10) O=C(CSCC(=O)N/N=C/c1ccccc1O)N/N=C\c1ccccc1O = > 100 µM
11) COC(=O)CN(CC(O)C(NC(C)=O)C(O)C=O)C(=O)OCc1ccccc1 (stereo not drawn) = > 100 µM
12) CC(C)(C)OC(=O)NCCCCn1c2c(c3ccccc3c1=O)C(=O)c1ccccc1-2 = > 100 µM
13) CO[C@@H]1CCN(c2nccc(Nc3cc4c(C(C)C)ccc(N5CC(CS(C)(=O)=O)[C@H]5C)c4cn3)n2)C[C@@H]1F (stereo partly drawn) = > 100 µM
14) NC1C=NNC1=O (stereo not drawn) = > 100 µM
15) O=C1CCC(=O)N1CNc1ccc2c(c1)S(=O)(=O)c1ccccc1O2 = > 100 µM
16) CC(C)(C)OC(=O)N1CC(CCl)c2ccc(O)cc21 (stereo not drawn) = 4.53 µM
17) Cc1ccc(/C=C/C(=N/NC(=O)N/N=C(/C=C/c2ccc(C)cc2)C(C)C)C(C)C)cc1 = > 10 µM
18) CN(CCO)Cc1ncccc1O = > 100 µM
19) N#C/C(c1nc2ccccc2[nH]1)=c1\s/c(=C(/N)O)c(=N)n1-c1ccccc1 = > 100 µM
20) Clc1cc2ccccc2c2ccccc12 = > 100 µM
21) CCC(=O)NI1OC(=O)c2ccccc21 = > 100 µM
22) N#Cc1c(-c2ccccc2)cc(-c2ccc(N)cc2)[nH]c1=O = > 100 µM
23) O=C1Nc2cc(-c3cccc(O)c3)ccc2/C1=C/c1ccc[nH]1 = 28.6 µM
24) COc1cc2c(oc(=O)c3c4occc4cc(OC)c23)c2cccc(OCc3ccccc3)c12 = > 100 µM
25) COC(=O)c1cc(OS(=O)(=O)C(F)(F)F)c(=O)n2c1CCCC2 = > 100 µM
26) CNCCCNC(=S)Cn1cc(C)c(=O)[nH]c1=O = > 69.9 µM
27) CC[C@@]1(OC(=O)C(N)CCCCN)C(=O)OCc2c1cc1n(c2=O)Cc2cc3ccccc3nc2-1 (stereo partly drawn) = 3.39 µM
28) NCCCOc1cc2ccccc2cc1C(=O)Nc1ccc(Cl)cc1OC(=O)c1cc2ccccc2cc1OCCCN = 2.63 µM
29) CCOC(=O)c1nc2ccccc2n(CC)c1=O = > 100 µM
30) O/N=C(/C(Cl)=C(Cl)Cl)C(Cl)Cl = 44.2 µM
31) N#Cc1ccc(-c2c(-c3ncn[nH]3)sc(N3CCOCC3)c2C#N)c(F)c1 = 15.6 µM
32) Nc1c(C(=O)Nc2ccccn2)sc2nc3c(cc12)C(O)CCC3 (stereo not drawn) = > 50 µM
33) CSc1nc(Nc2ccccc2Cl)c2c(N)nn(C)c2n1 = > 100 µM
34) Cc1ccccc1NC(=O)/C=N/O = > 100 µM
35) Cc1ccc(C(=O)c2sc3nc4c(cc3c2N)CCCC4)c(C)c1 = 5.07 µM
36) Cn1c(=O)nc2n(-c3ccc(Cl)cc3)c(-c3ccccc3)c(-c3ccccc3)nc-2c1=O = > 100 µM
37) c1ccc2c(c1)nc1n2CSCC1 = > 100 µM
38) O=C1/C(=C/c2ccc3c(c2)OCCO3)CCC/C1=C\c1ccc2c(c1)OCCO2 = 46.8 µM
39) CCOC(=O)c1nc2ccccc2nc1NCc1ccc(OC)c(OC)c1 = > 100 µM
40) CCCCC(C)/C=C/C(=O)C1=C(O)/C(=C/C(=O)O)OC1=O (stereo not drawn) = > 100 µM
41) Cc1cccc(C)c1NC(=O)CCc1nnc2s/c(=C\c3ccc(N(C)C)cc3)c(=O)n12 = > 100 µM
42) NC(=O)CN1CC(C2=C(O)CN(CC(N)=O)C2=O)=CC1=O = > 100 µM
43) COC(=O)CCC(=O)N1C/C(=C\c2ccccc2)C(=O)/C(=C/c2ccccc2)C1 = 3.67 µM
